- assay_target: T1, human CCR1 (C-C chemokine receptor-1) (human, UniProt P32246 1-355)
- T1 sequence (looked up): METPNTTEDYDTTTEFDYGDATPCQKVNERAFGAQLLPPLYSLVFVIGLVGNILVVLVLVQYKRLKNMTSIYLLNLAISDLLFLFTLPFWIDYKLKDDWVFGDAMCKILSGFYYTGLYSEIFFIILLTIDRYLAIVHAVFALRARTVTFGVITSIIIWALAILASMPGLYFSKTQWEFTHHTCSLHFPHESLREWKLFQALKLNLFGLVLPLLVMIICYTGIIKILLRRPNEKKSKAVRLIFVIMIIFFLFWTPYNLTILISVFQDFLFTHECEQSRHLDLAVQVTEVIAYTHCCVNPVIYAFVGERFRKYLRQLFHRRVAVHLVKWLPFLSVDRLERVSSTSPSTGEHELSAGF
- protocol: cell-based or functional assay
Hi there, I'd appreciate the recorded log10(EC50, THP-1 cell chemotaxis) for every entry that follows.
Answers are given as log10 of EC50, THP-1 cell chemotaxis in nM.

Solved entries:
binder: CCL23/CKβ8 digested with PMN sup #1 (ligand) LLDRFHATSADCCISYTPRSIPCSLLESYFETNSECSKPGVIFLTKKGRRFCANPSDKQVQVCMRMLKLDTRIKTRKN
log10(EC50, THP-1 cell chemotaxis): -0.82
//
binder: CCL15Δ24/LKN-1 (68aa) (ligand) SFHFAADCCTSYISQSIPCSLMKSYFETSSECSKPGVIFLTKKGRQVCAKPSGPGVQDCMKKLKPYSI
log10(EC50, THP-1 cell chemotaxis): -1.22
//
binder: CCL23α Δ24 (CCL23Δ24/MPIF-1, 46-120) (ligand, Recombinant CCL23/CKβ8 lacking the N-terminal 24 residues) RFHATSADCCISYTPRSIPCSLLESYFETNSECSKPGVIFLTKKGRRFCANPSDKQVQVCMRMLKLDTRIKTRKN
log10(EC50, THP-1 cell chemotaxis): -1.05
//
binder: CCL15/MIP-1δ digested with chymase (ligand) AADCCTSYISQSIPCSLMKSYFETSSECSKPGVIFLTKKGRQVCAKPSGPGVQDCMKKLKPYSI
log10(EC50, THP-1 cell chemotaxis): -1.30

query: Give reported log10(EC50, THP-1 cell chemotaxis) value for CCL15/MIP-1δ (92aa) (ligand) QFINDAETELMMSKLPLENPVVLNSFHFAADCCTSYISQSIPCSLMKSYFETSSECSKPGVIFLTKKGRQVCAKPSGPGVQDCMKKLKPYSI
result: 1.70
